Kindly state Kd for each of the entries shown.
- experimentalSystem: T1, Biotinylated human DLL3 (human, UniProt Q9NYJ7 27-492, biotinylated (site not stated))
- T1 construct: also called Delta-like ligand 3; Delta Like Canonical Notch Ligand 3
- T1 sequence (looked up): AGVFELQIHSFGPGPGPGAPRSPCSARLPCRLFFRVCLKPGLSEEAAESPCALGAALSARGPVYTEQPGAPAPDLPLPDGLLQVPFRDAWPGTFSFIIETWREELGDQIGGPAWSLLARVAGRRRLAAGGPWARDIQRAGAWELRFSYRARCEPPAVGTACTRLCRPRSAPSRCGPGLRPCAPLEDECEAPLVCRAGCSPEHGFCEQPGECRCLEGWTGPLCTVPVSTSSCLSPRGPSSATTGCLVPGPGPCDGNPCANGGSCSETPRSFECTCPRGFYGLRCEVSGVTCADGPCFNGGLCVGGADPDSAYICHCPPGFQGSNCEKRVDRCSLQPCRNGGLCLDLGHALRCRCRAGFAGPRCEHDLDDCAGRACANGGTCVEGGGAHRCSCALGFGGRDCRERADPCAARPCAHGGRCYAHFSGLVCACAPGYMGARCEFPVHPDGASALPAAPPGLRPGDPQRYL
- protocolDetails: SPR, biotin-hDLL3 on SA chip
Numbered stars: 1 amine (or outer) side, 2 acyl side, 3 side chain; on linkers, the order of the positions; unused ones are H or OH. Bridge positions count the residues as written; N and C are the ends. Square brackets hold non-standard residues; d marks the D form. * marks the point of attachment. Ala(piperidin-4-yl) = O=C([C@H](CC1CCN([*:3])CC1)N[*:1])[*:2]; DOTA = O=C(O)CN1CCN(CC(=O)O)CCN(CC(=O)*)CCN(CC(=O)O)CC1; Pro(4,4-F2) = O=C(O)[C@@H]1CC(F)(F)CN1; 1Nal = N[C@@H](Cc1cccc2ccccc12)C(=O)O; Chg = N[C@H](C(=O)O)C1CCCCC1
Hi! Could you send only the number? It should be in nM, unit omitted.

The binder identified as Ac-MSDCWLQWNC[Pro(4,4-F2)]FD[dK](DOTA)-NH2 (disulfide 4-10) [Cpd #52] registered its Kd at 17

The recorded Kd for Ac-ASDCWLQWNCPFD-NH2 (disulfide 4-10; SMILES CC(=O)N[C@@H](C)C(=O)N[C@@H](CO)C(=O)N[C@@H](CC(=O)O)C(=O)N[C@H]1CSSC[C@@H](C(=O)N2CCC[C@H]2C(=O)N[C@@H](Cc2ccccc2)C(=O)N[C@@H](CC(=O)O)C(N)=O)NC(=O)[C@H](CC(N)=O)NC(=O)[C@H](Cc2c[nH]c3ccccc23)NC(=O)[C@H](CCC(N)=O)NC(=O)[C@H](CC(C)C)NC(=O)[C@H](Cc2c[nH]c3ccccc23)NC1=O) [Cpd #19] is 21

Input Ac-[Chg]SDC[1Nal]L[Ala(piperidin-4-yl)]WNCPFD[dK](DOTA)-NH2 (disulfide 4-10) [Cpd #111] . Output Kd: 1.24

The recorded Kd for Ac-[Chg]SDCWLQWNCPFD[dK](DOTA)-NH2 (disulfide 4-10) [Cpd #77] is 7.4

src = patent US20250186541A1
